Origin of measurements: ChEMBL document CHEMBL1123314

Test system: CCRF-CEM
measurementProtocol: In vitro antitumor activity in CCRF-CEM culture of human leukemic lymphocytes
Assay type: functional
conditionParameters: read-out: ID50 (the source's name)
Label Yes when IC50 < 100 nM; otherwise No.

# input Does the reported IC50 of COc1cccc2c1C(=O)c1c(O)c3c(c(O)c1C2=O)C[C@@](O)(C(=O)COC(=O)C(NC(C)=O)C(C)C)C[C@@H]3OC1CC(NC(=O)C(F)(F)F)C(O)C(C)O1 (stereo partly specified) stay below 100 nM?
# output No

# input What about COc1cccc2c1C(=O)c1c(O)c3c(c(O)c1C2=O)C[C@@](O)(C(=O)COC(=O)C(CC(C)C)NC(C)=O)C[C@@H]3OC1CC(NC(=O)C(F)(F)F)C(O)C(C)O1 (stereo partly specified) ?
# output No

# input Now try COc1cccc2c1C(=O)c1c(O)c3c(c(O)c1C2=O)C[C@@](O)(C(=O)COC(=O)CNC(C)=O)C[C@@H]3OC1CC(NC(=O)C(F)(F)F)C(O)C(C)O1 (stereo partly specified) .
# output No

# input Queued: COc1cccc2c1C(=O)c1c(O)c3c(c(O)c1C2=O)C[C@@](O)(C(=O)COC(=O)CCC(NC(C)=O)C(=O)O)C[C@@H]3OC1CC(NC(=O)C(F)(F)F)C(O)C(C)O1 (stereo partly specified)
# output No

# input What do you get for COc1cccc2c1C(=O)c1c(O)c3c(c(O)c1C2=O)C[C@@](O)(C(=O)CO)C[C@@H]3O[C@H]1C[C@H](N)[C@H](O)[C@H](C)O1 [DOXORUBICIN] ?
# output Yes

# input Same for COc1cccc2c1C(=O)c1c(O)c3c(c(O)c1C2=O)C[C@@](O)(C(=O)COC(=O)CC(NC(C)=O)C(=O)O)C[C@@H]3OC1CC(NC(=O)C(F)(F)F)C(O)C(C)O1 (stereo partly specified)
# output No
